Hello, the source for this data is PubChem BioAssay (NCI), in case you need it.

- Tested on: K-562 leukemia
- Assay explanation: NCI tumour cell line growth inhibition, 48 h; in the data active means GI50 below about 0.43 µM; inactive means the rest
# output must be one of true (1) for active, false (0) for inactive

Outcome logged for C=CCC1(O)c2ccccc2C(=O)c2c(OCC(=O)OCC)ccc(OCC(=O)OCC)c21 (centres undefined) in this assay:
false (0)

Outcome logged for COc1cccc2c1nc(C(F)F)n2-c1nc(-c2ccc(NS(=O)(=O)CCN(C)C)cc2)nc(N2CCOCC2)n1 in this assay:
false (0)

Outcome logged for NS(=O)(=O)c1ccc(N(/C=C/C(=O)C(F)(F)F)CC(=O)c2ccc(F)cc2)cc1 in this assay:
false (0)

Outcome logged for Nc1ccc(/C=C/c2ccc3ncccc3c2)cc1 in this assay:
false (0)

Outcome logged for CC1=C(CCCOC(=O)[C@H](N)CC(C)C)C2=C(C)C3(CC3)[C@@](C)(O)C(=O)C2=C1 in this assay:
false (0)

Outcome logged for COc1ccc(-c2nc3sc(-c4cc(OC)c(OC)c(OC)c4)nn3c2/C=C2/C(=O)Nc3ccc(F)cc32)cc1 in this assay:
false (0)

Outcome logged for COC(=O)N[C@H]1CCc2cc(OC)c(OC)c(OC)c2-c2ccc(SC)c(=O)cc21 in this assay:
true (1)

Outcome logged for CN(C)CCNC(=O)c1cc2c3cc(Cl)ccc3[nH]c2c2ncccc12 in this assay:
false (0)

Outcome logged for CC1(C)N=C(N)N=C(N)N1c1ccc(OCCCNC(=O)Nc2ccc(S(=O)(=O)F)cc2)c(Cl)c1 in this assay:
true (1)
